Origin of values: patent US20030021776

Biological target: ZEN-7A 1 (VZ-573) (synthetic, UniProt P08047)
Sequence (P08047 other isoform, or with tags, fused parts or gaps): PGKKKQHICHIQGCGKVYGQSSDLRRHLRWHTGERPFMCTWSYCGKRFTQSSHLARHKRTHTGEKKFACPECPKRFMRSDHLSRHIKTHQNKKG
Assay: EMSA; 170 mM KCl, 1.7 mM MgCl2, Zn
Conditions: tags: MBP fusion (pMal-c2), SP1 backbone

binder	unitsSymbol	Kd
VZ-573 target (dsDNA) DNA 1: GGGGGCGCTC DNA 2: GAGCGCCCCC	nM	0.63
